// provenance: the supplement of paper PMC10498489

Test system: HepG2 Srxn1-GFP reporter cells (+30 nM CDDO-Me)
protocol-notes: Srxn1-GFP intensity median modified Z-score relative to plate median; higher = stronger NRF2 / oxidative stress reporter activation, active = hit call of the paper
condition-parameters: 10 µM; exposure time: 24h
Hit rate of the full screen: of about 2,300 compounds, about 330 (14%) showed activity.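 The calls were made as follows: active = median modified Z-score above 1.96; inactive = 1.96 or below.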 A selection follows.
# output must be one of Yes for active, No for inactive

Problem: Please share the test call associated with CC1OC(OC2C(O)CC(OC3C(O)CC(OC4CCC5(C)C(CCC6C5CCC5(C)C(c7coc(O)c7)C(O)CC65O)C4)OC3C)OC2C)CC(O)C1O (stereo not given) .
Result: Yes

Problem: Please share the test call associated with `CC(C)(O)C(Cl)(Cl)Cl` .
Result: No

Problem: Please share the test call associated with C[C@H]1O[C@@H](O[C@H]2[C@@H](O)C[C@H](O[C@H]3[C@@H](O)C[C@H](O[C@H]4CC[C@]5(C)C6CC[C@]7(C)C(c8coc(O)c8)CC[C@]7(O)C6CC[C@@H]5C4)O[C@@H]3C)O[C@@H]2C)C[C@H](O)[C@@H]1O (stereo not given in full) .
Result: No

Problem: Please share the test call associated with `O=C(O)CCCc1ccc(N(CCCl)CCCl)cc1` .
Result: No

Problem: Please share the test call associated with OCC(O)[C@H]1O[C@@H]2O[C@H](C(Cl)(Cl)Cl)O[C@@H]2[C@H]1O (stereo not given in full) .
Result: No

====

Task for the reader: assign each of the following compounds its reported Srxn1-GFP intensity median modified Z-score.
Test system: HepG2 Srxn1-GFP reporter cells (+30 nM CDDO-Me)
protocol-notes: Srxn1-GFP intensity median modified Z-score relative to plate median; higher = stronger NRF2 / oxidative stress reporter activation, active = hit call of the paper
condition-parameters: 10 µM; exposure time: 24h
About 330 (14%) of roughly 2,300 compounds showed activity. These entries were drawn from the full list.

Problem: Supply measured Srxn1-GFP intensity median modified Z-score of `c1ccc2c(c1)oc1ccccc12` in your reply.
Result: 0.352 (inactive)

Problem: Supply measured Srxn1-GFP intensity median modified Z-score of COc1cc2c(cc1OC)-c1c(oc3c4c(ccc3c1=O)OC(C(C)C)C4)CO2 (stereo not given) [euspeclibcmpd1802] in your reply.
Result: -0.169 (inactive)

Problem: Supply measured Srxn1-GFP intensity median modified Z-score of C=C(C)C1Cc2c(ccc3c(=O)c4c(oc23)COc2cc(OC)c(OC)cc2-4)O1 (stereo not given) [euspeclibcmpd1633] in your reply.
Result: 0.389 (inactive)

Problem: Supply measured Srxn1-GFP intensity median modified Z-score of NC(=O)C[S+]([O-])C(c1ccccc1)c1ccccc1 (stereo not given) [euspeclibcmpd2299] in your reply.
Result: 0.327 (inactive)

Problem: Supply measured Srxn1-GFP intensity median modified Z-score of C[N+]1([O-])C2CCC1CC(OC(=O)C(CO)c1ccccc1)C2 (stereo not given) [euspeclibcmpd2322] in your reply.
Result: -0.247 (inactive)

Problem: Supply measured Srxn1-GFP intensity median modified Z-score of O=C1c2ccccc2C(=O)c2ccccc21 [euspeclibcmpd2403] in your reply.
Result: -0.277 (inactive)

Problem: Supply measured Srxn1-GFP intensity median modified Z-score of C[C@@]12C(c3coc(O)c3)CC[C@]1(O)C1CC[C@@H]3C[C@@H](O)CC[C@]3(C)C1C[C@H]2O (stereo not given in full) [euspeclibcmpd2259] in your reply.
Result: -0.638 (inactive)

Problem: Supply measured Srxn1-GFP intensity median modified Z-score of O=c1cccc2n1C[C@H]1CNCC2C1 [euspeclibcmpd1159] in your reply.
Result: 0.6 (inactive)

Problem: Supply measured Srxn1-GFP intensity median modified Z-score of N#CC(=Cc1cccc(O)c1)C(=O)O [euspeclibcmpd2014] in your reply.
Result: 0.195 (inactive)

Problem: Supply measured Srxn1-GFP intensity median modified Z-score of C[C@]12CCC(=O)CC1=CCC1C2CC[C@@]2(C)C1CC[C@@H]2O (stereo not given in full) [euspeclibcmpd2134] in your reply.
Result: -0.455 (inactive)

Problem: Supply measured Srxn1-GFP intensity median modified Z-score of c1ccc2c(c1)sc1ccccc12 [euspeclibcmpd88] in your reply.
Result: 3.54 (active)

Problem: Supply measured Srxn1-GFP intensity median modified Z-score of C[N+]1(C)C2CC(OC(=O)C(CO)c3ccccc3)CC1C1OC12 (stereo not given) [euspeclibcmpd193] in your reply.
Result: -0.176 (inactive)

Problem: Supply measured Srxn1-GFP intensity median modified Z-score of Cc1cc2c(C(C)C)c(O)c(O)c(C=O)c2c(O)c1-c1c(C)cc2c(C(C)C)c(O)c(O)c(C=O)c2c1O [euspeclibcmpd1471] in your reply.
Result: 3.88 (active)

Problem: Supply measured Srxn1-GFP intensity median modified Z-score of N[C@H](CO)Cc1ccccc1 [euspeclibcmpd1743] in your reply.
Result: -0.578 (inactive)

Problem: Supply measured Srxn1-GFP intensity median modified Z-score of CNC(C)(C)Cc1ccccc1 [euspeclibcmpd691] in your reply.
Result: 0.194 (inactive)

Problem: Supply measured Srxn1-GFP intensity median modified Z-score of CO[C@H]1[C@H](O)[C@@H](O[C@H]2CC[C@]3(C=O)C4CC[C@]5(C)C(c6coc(O)c6)CC[C@]5(O)C4CC[C@@H]3C2)O[C@@H](C)[C@@H]1O (stereo not given in full) [euspeclibcmpd2165] in your reply.
Result: 3.39 (active)

Problem: Supply measured Srxn1-GFP intensity median modified Z-score of CC[C@@H](CO)NC(=O)C1=CC2c3cccc4c3c(cn4C)C[C@H]2N(C)C1 (stereo not given in full) [euspeclibcmpd522] in your reply.
Result: -0.363 (inactive)

Problem: Supply measured Srxn1-GFP intensity median modified Z-score of COc1ccc2c(c1)[C@]13CCCC[C@@H]1[C@H](C2)N(C)CC3 [euspeclibcmpd87] in your reply.
Result: 0.145 (inactive)

Problem: Supply measured Srxn1-GFP intensity median modified Z-score of CC(CO)NC(=O)C1=CC2c3cccc4[nH]cc(c34)CC2N(C)C1 (stereo not given) [euspeclibcmpd113] in your reply.
Result: 0.556 (inactive)

Problem: Supply measured Srxn1-GFP intensity median modified Z-score of CN1CC(C(=O)N[C@]2(C)O[C@@]3(O)[C@@H]4CCCN4C(=O)C(Cc4ccccc4)N3C2=O)C[C@@H]2c3cccc4[nH]cc(c34)C[C@H]21 (stereo not given in full) [euspeclibcmpd97] in your reply.
Result: -0.0377 (inactive)

Problem: Supply measured Srxn1-GFP intensity median modified Z-score of CC1(C)C(C=C(Cl)Cl)C1C(=O)OC(C#N)c1cccc(Oc2ccccc2)c1 (stereo not given) [euspeclibcmpd1141] in your reply.
Result: -0.358 (inactive)

Problem: Supply measured Srxn1-GFP intensity median modified Z-score of CC[C@@]1(O)C(=O)OCc2c1cc1n(c2=O)Cc2cc3ccccc3nc2-1 [euspeclibcmpd1447] in your reply.
Result: -0.602 (inactive)

Problem: Supply measured Srxn1-GFP intensity median modified Z-score of CC=C(C)C(=O)O[C@H]1C[C@@H](OC(C)=O)[C@@]2(C(=O)OC)CO[C@@H]3C2[C@]12CO[C@](O)(C(=O)OC)[C@H]2[C@](C)([C@]12O[C@@]1(C)[C@H]1C[C@@H]2OC2OC=C[C@@]21O)[C@@H]3O (stereo not given in full) [euspeclibcmpd1486] in your reply.
Result: 2.24 (active)

Problem: Supply measured Srxn1-GFP intensity median modified Z-score of OC[C@@H]1CCCN2CCCC[C@H]12 [euspeclibcmpd1729] in your reply.
Result: -0.476 (inactive)

Problem: Supply measured Srxn1-GFP intensity median modified Z-score of C=C(C)[C@H]1Cc2c(ccc3c2O[C@@H]2COc4cc(OC)c(OC)cc4C2C3=O)O1 (stereo not given in full) [euspeclibcmpd1688] in your reply.
Result: 63.1 (active)

Problem: Supply measured Srxn1-GFP intensity median modified Z-score of COc1cccc([C@]2(O)CCCC[C@H]2CN(C)C)c1 [euspeclibcmpd765] in your reply.
Result: -0.221 (inactive)

Problem: Supply measured Srxn1-GFP intensity median modified Z-score of CC(C)(C)NCC(O)c1cc(Cl)c(N)c(Cl)c1 (stereo not given) [euspeclibcmpd1154] in your reply.
Result: -0.331 (inactive)

Problem: Supply measured Srxn1-GFP intensity median modified Z-score of CNc1ccc(C(=O)CC(O)CCC(C)C2OC(=O)CC(O)CC(=O)CC(O)CC(O)CC(O)CC(O)CC3(O)CC(O)C(C(=O)OC)C(CC(OC4OC(C)C(O)C(N)C4O)C=CC=CC=CC=CC=CC=CC=CC2C)O3)cc1 (stereo not given) [euspeclibcmpd1836] in your reply.
Result: 0.559 (inactive)

Problem: Supply measured Srxn1-GFP intensity median modified Z-score of O=P1(NCCBr)OCCCN1CCCl (stereo not given) in your reply.
Result: 0.805 (inactive)

Problem: Supply measured Srxn1-GFP intensity median modified Z-score of CCCCCC1C(=O)O[C@H](C)C(NC(=O)c2cccc(NC=O)c2O)C(=O)O[C@@H](C)[C@@H]1OC(=O)CC(C)C (stereo not given in full) [euspeclibcmpd1446] in your reply.
Result: 39.4 (active)
